assay summary: Brain uptake procedure, LCMS of brain and plasma
Type: in vivo, mice (Tg6799 colony with B6/SJL background)
assay conditions: Tg6799 colony with B6/SJL background, mouse, plasma, intraperitoneal, 1 mg/kg, 1 mg/kg i.p., 10 minutes, single mice; read-out: Plasma concentration July
value kind: concentration at 10 min (ng/mL)
Supply the numeric figure in ng/mL, leaving out any unit text.

The recorded concentration at 10 min for `O=c1cc(COc2cc(Cl)cc(Cl)c2)[nH][nH]1` is 90.4

====

Tested on: PC12 cells that express mutant G93A SOD1
assay summary: Mutant SOD1-induced cytotoxicity protection assay
assay conditions: Rattus norvegicus, PC-12, read-out: EC50 after Normalization, normalised with the corresponding 3299 EC50
Parameter pEC50: see the listing below.
In plain terms, pEC50 is the concentration in mol/L turned into minus its base-10 logarithm.

The recorded pEC50 for `O=c1cc(CSc2ccc(Cl)cc2)[nH]n1-c1ccccc1` is 5.46

The recorded pEC50 for `Cc1cc(SCc2cc(=O)[nH][nH]2)c(C)cc1Cl` is 6.41

The recorded pEC50 for `O=c1cc(CSc2cccc(Cl)c2)[nH][nH]1` is 5.95

The recorded pEC50 for `O=c1cc(CSc2ccc(F)cc2)[nH][nH]1` is 5.46

The recorded pEC50 for `O=c1cc(CSc2ccc(Br)cc2)[nH][nH]1` is 5.74
